molecular target: Adenosine receptor A2a (Homo sapiens); experiment: Displacement of [3H]ZM241385 from human adenosine A2A receptor expressed in HEK293 cell membrane at 1 uM; type: cell membranes
experimental endpoint: Activity (%)

Worked examples follow.
Cc1ccc(-c2cc(-c3ccco3)nc(N)c2C#N)cc1; 45
N#Cc1c(-c2ccc(-c3ccccc3)cc2)cc(-c2ccco2)nc1N; 0

I = CN(C)c1ccc(-c2cc(-c3ccco3)nc(N)c2C#N)cc1
II = CC(C)Oc1ccc(-c2cc(-c3ccco3)nc(N)c2C#N)cc1
III = N#Cc1c(-c2ccc(O)cc2)cc(-c2ccccc2)nc1N
IV = CN(C)c1ccc(-c2cc(-c3ccccc3)nc(N)c2C#N)cc1
V = N#Cc1c(-c2ccc3c(c2)OCO3)cc(-c2ccccc2)nc1N
-- ask Arrange these 5 molecules in increasing order of Activity. # the answer lists labels in the order requested
-- reply IV, I, II, III, V
(IV: 1%, I: 3.8%, II: 6%, III: 17%, V: 34%)

---

target: Adenosine receptor A1 (Homo sapiens); assay: Displacement of [3H]DPCPX from human adenosine A1 receptor expressed in CHO cell membrane at 1 uM; type: cell membranes
experimental endpoint: Activity (%)

N#Cc1c(-c2ccc(-c3ccccc3)cc2)cc(-c2ccco2)nc1N; 0
CN(C)c1ccc(-c2cc(-c3ccco3)nc(N)c2C#N)cc1; 11

I = N#Cc1c(-c2ccccc2)cc(-c2ccc[nH]2)nc1N
II = Cc1ccc(-c2cc(-c3ccco3)nc(N)c2C#N)cc1
III = CN(C)c1ccc(-c2cc(-c3ccccc3)nc(N)c2C#N)cc1
IV = CC(C)Oc1ccc(-c2cc(-c3ccco3)nc(N)c2C#N)cc1
-- ask Please put the entries in order of rising Activity. // rank by listing labels in the order requested
-- reply III, IV, I, II
(III: 12%, IV: 19%, I: 28%, II: 47%)

---

Here we list compounds with their recorded Ki when tested on Adenosine receptor A1 (Homo sapiens, UniProt P30542).
experimental endpoint: Ki (nM)

1 = N#Cc1c(-c2cccs2)cc(-c2cccs2)nc1N
2 = N#Cc1c(-c2cccs2)cc(-c2ccccc2)nc1N
-- ask Among 1 and 2 , whose measured Ki is the smaller figure? Identify your selection by its label.
-- reply 2
(2: 22 nM, 1: 43 nM)

---

molecular target: Adenosine receptor A2a (Homo sapiens, UniProt P29274)
Sequence (P29274 whole entry): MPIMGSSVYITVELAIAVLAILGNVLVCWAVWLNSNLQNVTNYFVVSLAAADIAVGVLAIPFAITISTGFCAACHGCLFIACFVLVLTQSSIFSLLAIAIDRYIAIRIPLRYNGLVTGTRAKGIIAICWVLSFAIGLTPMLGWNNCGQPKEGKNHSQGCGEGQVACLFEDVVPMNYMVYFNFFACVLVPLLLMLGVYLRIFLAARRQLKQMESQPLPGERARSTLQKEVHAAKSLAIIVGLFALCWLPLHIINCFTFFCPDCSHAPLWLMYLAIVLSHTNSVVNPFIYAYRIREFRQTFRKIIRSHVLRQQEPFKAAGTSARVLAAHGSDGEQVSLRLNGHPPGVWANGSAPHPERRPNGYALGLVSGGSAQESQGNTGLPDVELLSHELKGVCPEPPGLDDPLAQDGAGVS
experimental endpoint: Ki (nM)

CC(O)(C#Cc1cn2nc(-c3ccco3)nc2c(N)n1)Cc1ccncc1 (centres undefined); 1.1
Nc1nc(-c2ccco2)c2ncn(C(=O)NCc3ccccc3)c2n1; 1.1
Nc1nc(CN[C@H]2CCCN2Cc2ccnc(Cl)c2)nc2nc(-c3ccco3)nn12; 4

I = Nc1nc2c(cnn2CCc2ccc(S(=O)(=O)N(CCO)CCO)cc2)c2nc(-c3ccco3)nn12
II = CC(C)(C)OC(=O)N1CCN(c2cccc(-c3cc4nc(-c5ccco5)nn4c(N)n3)c2)CC1
III = CC(C)c1ccc2c(c1)-c1nc(N)nc(-c3ccc(Br)o3)c1C2
IV = COc1ccccc1-c1cc2nc(-c3ccco3)nn2c(N)n1
-- ask Endpoint returns the given compounds ordered by ascending Ki. Give the order by naming the labels one after another as requested.
-- reply I, II, III, IV

---

biological target: UniProt P0DMS8
Sequence (P0DMS8 whole entry): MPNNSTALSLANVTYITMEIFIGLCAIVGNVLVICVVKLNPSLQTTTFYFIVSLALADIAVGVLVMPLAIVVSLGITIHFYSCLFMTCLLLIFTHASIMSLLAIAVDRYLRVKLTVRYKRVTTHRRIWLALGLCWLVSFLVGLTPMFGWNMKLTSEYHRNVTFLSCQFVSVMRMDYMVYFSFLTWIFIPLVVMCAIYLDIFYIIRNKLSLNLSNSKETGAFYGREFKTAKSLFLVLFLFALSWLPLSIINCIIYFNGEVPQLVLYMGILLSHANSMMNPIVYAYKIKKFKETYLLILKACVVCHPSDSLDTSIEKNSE
experimental endpoint: pKi
// scale note: pKi = -log10(conc_M); give the bare number

-- ask Hi! What's the reported pKi for N#Cc1c(-c2ccc3c(c2)OCO3)cc(-c2ccco2)nc1N on UniProt P0DMS8?
-- reply 6.41

---

Here, each record is paired with measured Ki data.
Target: Adenosine receptor A1 (Homo sapiens)
Sequence (P30542 whole entry): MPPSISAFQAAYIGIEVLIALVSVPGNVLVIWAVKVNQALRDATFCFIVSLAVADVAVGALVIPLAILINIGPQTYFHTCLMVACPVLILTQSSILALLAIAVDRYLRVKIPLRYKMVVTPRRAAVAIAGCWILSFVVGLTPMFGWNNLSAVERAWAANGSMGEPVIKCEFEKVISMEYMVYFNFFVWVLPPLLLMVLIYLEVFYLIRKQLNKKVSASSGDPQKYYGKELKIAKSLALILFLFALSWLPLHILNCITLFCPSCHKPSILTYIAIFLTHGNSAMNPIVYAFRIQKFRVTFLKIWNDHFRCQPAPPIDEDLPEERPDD
Could you give me the number in nM? Just the number is fine.

-- ask What does the record list as Ki for N#Cc1c(-c2ccc(O)cc2)cc(-c2ccccc2)nc1N ?
-- reply 61

-- ask Endpoint output: Ki of N#Cc1c(-c2ccccc2)cc(-c2ccco2)nc1N . Value?
-- reply 28

-- ask Name the recorded Ki for N#Cc1c(-c2ccco2)cc(-c2cccs2)nc1N .
-- reply 29

-- ask Could you tell me which Ki is on file for N#Cc1c(-c2ccco2)cc(-c2ccccc2)nc1N ?
-- reply 5.8

-- ask // returns reported Ki for input N#Cc1c(-c2ccc3c(c2)OCO3)cc(-c2ccco2)nc1N
-- reply 11
